inhibition for assorted compounds
# measurement.target: Trace amine-associated receptor 1 (Homo sapiens)
# assay.protocol: blockers of beta-PEA-driven TAAR1 calcium signal – Fluo-8 calcium fluorescence, CHO RD-HGA16 cells, primary screen (AID 624466);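 also: 0% = DMSO plus EC80 beta-PEA response and 100% = DMSO alone without agonist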
# applied.conditions: CHO RD-HGA16 TAAR1, Fluo-8 calcium fluorescence, antagonist; at 3 µM; hits give high values
Among all 360,000 compounds or so, about 5,400 (1.5%) were called active. The entries come from a sample that favours actives as a whole.
measurement.kind: inhibition (%)

>>> recorded_result("O=C(Nc1ccc(Br)cc1)C1CCC(=O)N1Cc1ccccc1Cl (stereo unspecified)")
11.4
>>> recorded_result("O=C1C=C(c2ccc(Cl)cc2)C(=O)N1Nc1ccccc1")
74.6
>>> recorded_result("C[C@@H]1CN([C@H](C)CO)S(=O)(=O)c2ccc(C#C[C@@H](C)O)cc2O[C@@H]1CN(C)Cc1ccc(-c2ccccc2)cc1")
-12.7
>>> recorded_result("COc1ccc(C(C(=O)Nc2c(C)cccc2C)N2CCN(c3ccc(C)cc3)CC2)cc1 (stereo unspecified)")
-16.4
>>> recorded_result("O=C(c1ccc(O)cc1)c1ccc(C(=O)O)c(C(=O)O)c1")
17.8
>>> recorded_result("Nc1ncnc2c1ncn2C1OC(CO)CC1O (stereo unspecified)")
-14.9
